- Method summary: Cytotoxicity against mouse Colon 26-L5 cells after 72 hrs by MTT assay
- Format: functional, cell-based
Measurement name: IC50 (µM)
// units = µM; emit number, no label

Solved cases (3 shown):
{"Smiles input": "COc1cc(O)c(C)c2c1CC[C@H](c1ccc(O)cc1)O2", "Recorded value": 59.1}
{"Smiles input": "COc1cc(O)cc(/C=C/c2ccc(O)cc2)c1", "Recorded value": 35.8}
{"Smiles input": "COc1cc(O)cc2c1OC[C@H](Cc1ccc(O)cc1)C2", "Recorded value": 49.5}

query: Requested read-out: IC50. Entry: COc1ccc(C[C@@H]2COc3cc(O)cc(O)c3C2=O)cc1
result: 30.6

query: Which IC50 value is on record for Oc1ccc([C@H]2CCc3ccc(O)cc3O2)cc1 ?
result: 43.9

###

- System: HT-1080
- Method summary: Cytotoxicity against human HT1080 cells after 72 hrs by MTT assay
- Format: functional, cell-based
- Condition context: HT-1080, 72 h
Each record is given rule met if its reported IC50 is strictly below 70 µM. Records at or above 70 µM are given rule not met.

Observe how each entry below is paired with its result.
{"Compound": "O=C(/C=C/c1ccccc1O)c1ccc(O)cc1O", "Class name": "rule met"}
{"Compound": "COc1c(O)cc2c(c1O)C(=O)[C@H](Cc1ccc(O)cc1)CO2", "Class name": "rule not met"}
{"Compound": "O=C(O)c1ccc(O)cc1 [PARABEN]", "Class name": "rule not met"}
{"Compound": "COc1cc(O)cc(/C=C/c2ccc(O)cc2)c1", "Class name": "rule not met"}
{"Compound": "COc1cc(O)ccc1C(=O)/C=C/c1ccc(O)cc1", "Class name": "rule met"}

query: Determine if O=C(/C=C/c1ccccc1)c1ccc(O)cc1O [2',4'-DIHYDROXYCHALCONE] shows IC50 strictly lower than 70 µM.
result: rule met

query: I wonder whether Oc1ccc(C[C@H]2COc3cc(O)ccc3C2)cc1 has IC50 below 70 µM. Can you tell?
result: rule not met

query: I wonder whether COc1ccc2c(c1)O[C@H](c1ccc(O)cc1)CC2 has IC50 below 70 µM. Can you tell?
result: rule not met

query: Identify whether the compound COc1ccc(C(=O)CCc2c(OC)cc(O)cc2OC)cc1 records IC50 below 70 µM.
result: rule not met

###

- Test system: A549
- Method summary: Cytotoxicity against human A549 cells after 72 hrs by MTT assay
- Format: functional, cell-based
- Condition context: A549, 72 h
Measurement name: pIC50
Just so you know, pIC50 here is -log10 of the concentration in molar units; reply with that number alone.

query: Fill in the blank: the reported pIC50 of COc1cc(/C=C/c2ccc(O)cc2)cc(OC)c1 is ____.
result: 4.14

query: # lookup: pIC50 of O=c1[nH]cc(F)c(=O)[nH]1
result: 5.23

query: Requested read-out: pIC50. Entry: COc1cc(O)c(C)c2c1CC[C@H](c1ccc(O)cc1)O2
result: 4.45

query: I would be grateful if you could share the reported pIC50 for COc1cc2c(cc1O)C[C@@H](Cc1ccc(O)cc1)CO2 .
result: 4.72

query: Query: pIC50; subject: COc1cc(O)cc(OC)c1CCC(=O)c1ccc(O)cc1
result: 4.37

###

- Method summary: Cytotoxicity against mouse Colon 26-L5 cells after 72 hrs by MTT assay
- Format: functional, cell-based
Threshold-based label: IC50 under 40 µM gives class 1, IC50 not under 40 µM gives class 0.

A selection of reference data follows.
{"Molecule": "O=c1[nH]cc(F)c(=O)[nH]1 [FLUOROURACIL]", "Class name": "class 1"}
{"Molecule": "O=C(/C=C/c1ccccc1O)c1ccc(O)cc1O", "Class name": "class 1"}
{"Molecule": "COc1cc2cc(Cc3ccc(O)cc3)c(=O)oc2cc1O", "Class name": "class 0"}
{"Molecule": "COc1cc2c(cc1O)C[C@@H](Cc1ccc(O)cc1)CO2", "Class name": "class 1"}
{"Molecule": "COc1cc(C(O)C(O)CO)ccc1O (configuration not stated) [GUAIACYL GLYCEROL]", "Class name": "class 0"}

Kindly consider the entry below.
query: Below 40 µM on IC50? Entry O=C1c2c(O)cc(O)cc2OC[C@H]1Cc1ccc(O)cc1
result: class 0

###

Each entry below carries its reported IC50.
- Method summary: Cytotoxicity against mouse Colon 26-L5 cells after 72 hrs by MTT assay
- Format: functional, cell-based
Field format: number, assumed µM, no unit text.

Example cases with answers are listed next.
{"Compound": "COc1cccc2c1C(=O)c1c(O)c3c(c(O)c1C2=O)C[C@@](O)(C(=O)CO)C[C@@H]3O[C@H]1C[C@H](N)[C@H](O)[C@H](C)O1 [DOXORUBICIN]", "Result unit": "µM", "Recorded value": 3.12}
{"Compound": "COc1cc(O)ccc1C(=O)/C=C/c1ccc(O)cc1", "Result unit": "µM", "Recorded value": 14.1}
{"Compound": "COc1ccc2c(c1)O[C@H](c1ccc(O)cc1)CC2", "Result unit": "µM", "Recorded value": 52.8}
{"Compound": "O=C1c2ccc(O)cc2OC[C@H]1Cc1ccc(O)cc1", "Result unit": "µM", "Recorded value": 69.3}
{"Compound": "COc1ccc(CCC(=O)c2ccc(O)cc2)c(OC)c1", "Result unit": "µM", "Recorded value": 32.2}
{"Compound": "O=C(O)c1ccc(O)cc1 [PARABEN]", "Result unit": "µM", "Recorded value": 33.3}
{"Compound": "O=C1C[C@@H](c2ccccc2)Oc2cc(O)cc(O)c21 [PINOCEMBRIN]", "Result unit": "µM", "Recorded value": 71}
{"Compound": "O=C(/C=C/c1ccccc1)c1ccc(O)cc1O [2',4'-DIHYDROXYCHALCONE]", "Result unit": "µM", "Recorded value": 4.71}

Alright, here's another compound for you.
query: Fill in: IC50 of Cc1c(O)ccc2c1O[C@@H](c1ccc(O)cc1)CC2 is ___
result: 40.2

###

- Test system: HT-1080
- Method summary: Cytotoxicity against human HT1080 cells after 72 hrs by MTT assay
- Assay type: functional, cell-based
- Condition context: HT-1080, 72 h
List of pIC50 values.
Reminder that pIC50 means the negative base-10 logarithm of the concentration expressed in mol/L.

{"Smiles input": "COc1cc(O)cc2c1OC[C@H](Cc1ccc(O)cc1)C2", "pIC50": 4.15}

query: Give its pIC50 value. Item: COc1cc(/C=C/c2ccc(O)cc2)cc(OC)c1
result: 4.03

query: Need pIC50, item COc1cccc2c1C(=O)c1c(O)c3c(c(O)c1C2=O)C[C@@](O)(C(=O)CO)C[C@@H]3O[C@H]1C[C@H](N)[C@H](O)[C@H](C)O1
result: 6.39

query: Could you tell me which pIC50 is on file for O=c1[nH]cc(F)c(=O)[nH]1 ?
result: 5.07

query: Consider the compound shown here: Oc1ccc([C@H]2CCc3ccc(O)cc3O2)cc1 What is its recorded pIC50?
result: 4.30

query: What pIC50 value was documented for this compound, COc1cc2c(cc1O)C[C@@H](Cc1ccc(O)cc1)CO2 ?
result: 4.76

###

- Test system: A549
- Method summary: Cytotoxicity against human A549 cells after 72 hrs by MTT assay
- Assay type: functional, cell-based
- Condition context: A549, 72 h
Measurement name: log10 IC50 (log10 of the value in µM)
Values are log10 of IC50 in µM.

{"Compound": "Oc1ccc([C@H]2CCc3ccc(O)cc3O2)cc1 [TUPICHINOL C]", "Target desc": "A549", "log10 IC50": 1.97}

query: # lookup: log10 IC50 of COc1ccc(CCC(=O)c2ccc(O)cc2)c(OC)c1
result: 1.95

query: What value of log10 IC50 has been recorded for this entry: COc1cc(O)cc(/C=C/c2ccc(O)cc2)c1
result: 1.96

query: // query log10 IC50 value for entry O=C(/C=C/c1ccccc1)c1ccc(O)cc1O [2',4'-DIHYDROXYCHALCONE]
result: 1.37

query: I'd like to know its log10 IC50. The compound in question is COc1cc(O)ccc1C(=O)/C=C/c1ccc(O)cc1
result: 1.82

###

- Method summary: Cytotoxicity against mouse Colon 26-L5 cells after 72 hrs by MTT assay
- Type: functional, cell-based
Measurement name: pIC50
# pIC50 is unitless: minus log10 of the molar concentration; print number only

Example compounds with recorded pIC50:
{"Smiles input": "COc1cc(O)cc(OC)c1CCC(=O)c1ccc(O)cc1", "Measurement name": "pIC50", "Recorded value": 4.40}
{"Smiles input": "COc1cc(/C=C/c2ccc(O)cc2)cc(OC)c1", "Measurement name": "pIC50", "Recorded value": 5.53}
{"Smiles input": "COc1ccc(CCC(=O)c2ccc(O)cc2)c(O)c1", "Measurement name": "pIC50", "Recorded value": 4.09}
{"Smiles input": "COc1ccc(C(=O)CCc2c(OC)cc(O)cc2OC)cc1", "Measurement name": "pIC50", "Recorded value": 4.17}

query: Return reported pIC50; argument: COc1c(O)cc2c(c1O)C(=O)[C@H](Cc1ccc(O)cc1)CO2
result: 4.05

query: What measured pIC50 goes with Oc1ccc(C[C@H]2COc3cc(O)ccc3C2)cc1 ?
result: 4.35

Cited source for all entries: ChEMBL document CHEMBL1154234
